biological target: BTK (Homo sapiens); experiment: Phospho-BTK (pBTK) test in basophils, whole blood; details: 24 hours exposure, CCR3+ basophils, anti-FcεR stimulation; read-out: average EC50 (n=4), pBTK (Y223) normalized to DMSO control
Sequence (Q06187 whole entry): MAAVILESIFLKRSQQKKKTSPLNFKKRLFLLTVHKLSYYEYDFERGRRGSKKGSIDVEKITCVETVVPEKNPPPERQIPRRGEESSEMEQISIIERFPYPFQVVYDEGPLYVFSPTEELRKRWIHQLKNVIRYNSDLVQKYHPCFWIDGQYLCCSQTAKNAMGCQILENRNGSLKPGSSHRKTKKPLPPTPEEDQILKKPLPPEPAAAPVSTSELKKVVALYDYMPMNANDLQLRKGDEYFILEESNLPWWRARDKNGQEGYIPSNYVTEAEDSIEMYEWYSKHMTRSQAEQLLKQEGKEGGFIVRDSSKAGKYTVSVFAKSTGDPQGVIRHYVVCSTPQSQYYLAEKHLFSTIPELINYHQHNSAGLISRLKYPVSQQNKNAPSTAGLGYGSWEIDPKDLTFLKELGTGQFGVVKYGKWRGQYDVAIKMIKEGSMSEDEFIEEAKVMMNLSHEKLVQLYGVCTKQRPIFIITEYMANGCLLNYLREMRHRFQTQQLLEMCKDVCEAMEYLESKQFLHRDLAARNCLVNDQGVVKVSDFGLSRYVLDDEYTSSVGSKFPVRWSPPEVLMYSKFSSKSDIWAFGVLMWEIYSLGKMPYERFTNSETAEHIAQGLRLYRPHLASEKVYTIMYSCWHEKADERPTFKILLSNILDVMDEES
quantity: EC50 (nM)

INSERT INTO measurements (molecule, value_observed) VALUES
  ('C=CC(=O)N1CCC(F)(CNc2ncnc(N)c2-c2ccc(Oc3ccccc3)cc2)CC1', 130);
